System: EPHA2
condition-summary: concentration: 1 μM, replicates: in singlicate; n = 1;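 note: KINOMEscan kinase panel screen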
quantity-name: %Inh (%)
Provide the reading as a plain figure in %.

# get_value(readout='%Inh', item= `CS(=O)(=O)c1ccc(-c2nc3n(c2-c2ccncc2)CCC3)cc1` )
6

So what's the measured %Inh for this one? `Cl.O=C(Nc1cccc(-c2nn3ncccc3c2-c2ccnc(Nc3cccnc3)n2)c1)c1c(F)cccc1F`
0

Please report the recorded %Inh for `CN1C(=O)C(Nc2ccc(Cl)c(C(=O)O)c2)=C(c2ccc(Cl)cc2)C1=O` .
0

Which %Inh is listed for `Fc1cc(Cl)ccc1Nc1ccnc2cc(-c3ccc(CN4CCCCC4)o3)ccc12` ?
6

Can you share its %Inh? I mean this compound: `COC(=O)c1c(-c2ccccc2)c2cc(C(=O)O)ccc2c(=O)n1Cc1ccccc1`
3

What value of measured %Inh is listed for `O=C(Nc1n[nH]c2nc(-c3nccs3)c(Br)cc12)C1CCCC1` ?
9

Need %Inh of `Cn1cncc1-c1ccc2ncnc(Nc3ccc(OCc4ccccc4)cc3)c2c1` , thanks.
17

Returns the measured %Inh for the input compound. Input: `Fc1cccc(COc2nnc(-c3ccc4c(c3)CCO4)o2)c1`
0

Need %Inh, item COc1cc2ncn(-c3cc(OCC4CCCO4)c(C(N)=O)s3)c2cc1OC (centres unmarked)
10

Field request: %Inh | item: `Cc1ccc(NC(=O)Nc2cc(C(C)(C)C)nn2-c2ccccc2)cc1`
7

What value of %Inh has been reported for the following compound? `Cc1cccc(-c2nc(Nc3ccncc3)c3ccccc3n2)n1`
18

Recorded %Inh of `O=c1cc(N2CCOCC2)nc2n(Cc3cccc(Cl)c3Cl)ccn12` , please.
4

Name the recorded %Inh for CC1=C(C(=O)Nc2cc3cn[nH]c3cc2F)C(c2ccc(C(F)(F)F)cc2)CC(=O)N1 (centres unmarked) .
14

So what does the record say about %Inh for `Nc1ncnc2[nH]c(-c3ccccc3)nc12` ?
23

Query: %Inh; subject: `COc1ccc(Nc2nccc(-c3cccc(NC(=O)c4cc5cc(F)ccc5[nH]4)c3)n2)cc1`
9

%Inh lookup needed for `COc1ccccc1-c1ccc2c(NC(=O)C3CC3)n[nH]c2n1` , thanks.
18

Give the measured %Inh of `CS(=O)(=O)c1ccc(-c2c(-c3ncn[nH]3)sc(N3CCOCC3)c2C#N)cc1` .
19

Give its %Inh value. Item: `CC(=O)Nc1nc2cnc(Nc3cc(NC(=O)c4cccc(CCC#N)c4)ccc3C)nc2s1`
34

Could you tell me which %Inh is on file for `NC(=O)c1nnc2ccccc2c1N` ?
10

Form field: reported %Inh of O=C(Nc1ccc2c(c1)OCO2)NC1CCN(c2ccnc(Nc3ccc(F)cc3)n2)C1 (centres unmarked)
16

So what's the measured %Inh for this one? `Cn1ccc2ncnc(Oc3ccc(Nc4nc5ccccc5[nH]4)cc3)c21`
0

Any idea what %Inh was measured for `COc1cc2nccc(Nc3ccc(NC(=O)c4ccc(C)cc4)c(O)c3)c2cc1OC.Cl` ?
8

Which value of %Inh has been reported for `COc1ccc2nc(-c3cccc(C)n3)nc(Nc3ccncc3)c2c1` in the records?
20

---

Test system: PIK3C2G
condition-summary: concentration: 1 μM, replicates: in singlicate; n = 1
quantity-name: %Inh (%)
The reply should be a number in %, with the unit left off.

# input compound: COc1ccccc1CNC(=O)c1cc(C(=O)c2ccccc2C)c[nH]1 [GSK364507] ; wanted: its %Inh
0

Requested field: %Inh. Item: COc1cc2ncn(-c3cc(OCC4CCCO4)c(C(N)=O)s3)c2cc1OC (stereo not drawn) [GSK204607]
0

Fill in: %Inh of O=c1cc(N2CCOCC2)nc2n(Cc3cccc(Cl)c3Cl)ccn12 [GSK2286295] is ___
0

Given the compound `COC(=O)c1c(-c2ccccc2)c2cc(C(=O)O)ccc2c(=O)n1Cc1ccccc1` , what is its reported %Inh?
0

Dear colleague, I am looking for the recorded %Inh of the following compound: COc1cc(Nc2nccc(N3CCC(NC(=O)Nc4cc(C)ccc4C)C3)n2)cc(OC)c1OC (stereo not drawn) [GSK1379762]
0

Any idea what its %Inh is? The compound is O=S(=O)(c1ccc(-c2ccnc3[nH]ccc23)cc1)N1CCCC1 [GSK846226]
0

# input compound: Cl.NC(=O)c1cccc(Nc2nccc(Nc3ccc(Oc4cccc(Cl)c4)c(Cl)c3)n2)c1 [GW659008] ; wanted: its %Inh
0

Name the recorded %Inh for `Cn1ccc2ncnc(Oc3ccc(Nc4nc5ccccc5[nH]4)cc3)c21` .
0

Name the reported %Inh value associated with the compound `O=C(Nc1ccccc1)Nc1cccc(Oc2ccc3nccn3n2)c1`
0

State the recorded %Inh for this entry: COc1ccc(C2=C(Nc3cccc(C(=O)O)c3)C(=O)NC2=O)cc1 [SB-390765]
21

So what's the measured %Inh for this one? Cc1ccc(C(=O)Nc2ccc(Nc3ccnc4cc(-c5ccccn5)ccc34)cc2O)cc1.Cl [GW440146]
0

I am curious: what %Inh value has been reported for Cc1csc(-c2nc(Nc3ccncc3)c3ccccc3n2)n1 [GW869640] ?
31

---

Test system: AMPK-alpha2
Construct: gene PRKAA2
condition-summary: concentration: 1 μM, replicates: in singlicate; n = 1
quantity-name: %Inh (%)
Please respond with the number in % and leave the unit unwritten.

Give its %Inh value. Item: `O=C(Nc1n[nH]c2nc(-c3nccs3)c(Br)cc12)C1CCCC1`
18

Which measured %Inh value corresponds to `Cl.O=C(Nc1cccc(-c2nn3ncccc3c2-c2ccnc(Nc3cccnc3)n2)c1)c1c(F)cccc1F` ?
12

Which %Inh value belongs to `Clc1cc(Cl)cc(Nc2ccnc(Nc3cc(Cl)cc(Cl)c3)n2)c1` ?
0

Reported %Inh for `Cn1ccc2ncnc(Oc3ccc(Nc4nc5ccccc5[nH]4)cc3)c21` : what is it?
0

Requested field: %Inh. Item: `Cn1ccc2ncnc(Oc3ccc(NC(=O)Nc4ccccc4)cc3)c21`
2

Item under review: `Cc1cccc(-c2nc(Nc3cccc(C(N)=O)c3)c3ccccc3n2)n1` . Reported %Inh?
0

---

Tested on: MST1R
condition-summary: concentration: 1 μM, replicates: in singlicate; n = 1
Would you mind telling me the reported %Inh of each entry?
Express your answer in %, writing the number without its unit.

Item `CCn1c(-c2ccccn2)nc2cnccc21` has what recorded %Inh?
47

Given `Cc1c(O)cccc1Nc1ccnc2ccc(C(F)(F)F)cc12.Cl` , state its recorded %Inh.
0

I'd like to know its %Inh. The molecule in question is Cc1nnc(-c2ccc3occ(-c4ccc(S(C)=O)cc4)c3c2)[nH]1 (stereo not shown)
0

Fill in the blank: the reported %Inh of `Cc1cccc(-c2cc(Nc3ccncc3)c3ccccc3n2)n1` is ____.
33

What value of %Inh has been recorded for this entry: `COc1ccccc1-c1ccc2c(NC(=O)C3CC3)n[nH]c2n1`
16

Fill in the blank: the reported %Inh of `Nc1ncnc2[nH]c(-c3ccccc3)nc12` is ____.
3

Which %Inh is listed for `NC(=O)c1nnc2ccccc2c1N` ?
10

Please report the recorded %Inh for `Cl.Oc1ccc(-c2nc(-c3ccccc3)[nH]c2-c2ccncc2)cc1` .
0

Given the molecule `Cn1ccc2ncnc(Oc3ccc(NC(=O)Nc4ccccc4)cc3)c21` , what is its reported %Inh?
10

Given `CN(C)CCN(C)C(=O)c1cc(-c2ccncc2)c(-c2ccc(Cl)c(O)c2)o1.Cl.Cl` , state its recorded %Inh.
42

// returns reported %Inh for input `O=C(Nc1n[nH]c2nc(-c3nccs3)c(Br)cc12)C1CCCC1`
27

What does the record list as %Inh for `Cc1cccc(-c2nc(C)cc(Nc3ccncc3)n2)n1` ?
35

Which %Inh is reported for this molecule? `COc1cc2nccc(Nc3ccc(NC(=O)c4ccc(C)cc4)c(O)c3)c2cc1OC.Cl`
0

%Inh lookup needed for `Cl.O=C(Nc1cccc(-c2nn3ncccc3c2-c2ccnc(Nc3cccnc3)n2)c1)c1c(F)cccc1F` , thanks.
26

# lookup: %Inh of `Fc1cc(Cl)ccc1Nc1ccnc2cc(-c3ccc(CN4CCCCC4)o3)ccc12`
16

Item COc1cc2ncn(-c3cc(OCC4CCCO4)c(C(N)=O)s3)c2cc1OC (stereo not shown) has what recorded %Inh?
16

---

Test system: GRK7
condition-summary: concentration: 1 μM, replicates: in singlicate; n = 1
quantity-name: %Inh (%)
Output spec: scalar in %, unitless text.

Reported %Inh for `COc1ccc(C2=C(Nc3cccc(C(=O)O)c3)C(=O)NC2=O)cc1` : what is it?
12

Find the recorded %Inh belonging to `Cc1cccc(-c2nc(Nc3ccc4[nH]ncc4c3)c3ccccc3n2)n1` and report it.
4

If you can, please state the reported %Inh value of `Cc1ccc(NC(=O)Nc2cccc(Cl)c2)cc1-c1ccc(C(=O)Nc2ccncc2)cc1` .
0

# lookup: %Inh of `Cc1c(O)cccc1Nc1ccnc2ccc(C(F)(F)F)cc12.Cl`
0

// lookup %Inh for `Cc1cccc(-c2nc(-c3ccc(S(C)(=O)=O)cc3)sc2-c2ccnc(NCCc3ccccc3)c2)c1`
7

Tell me the measured %Inh of `O=S(=O)(c1ccc(-c2ccnc3[nH]ccc23)cc1)N1CCCC1` , please.
0

Requested read-out: %Inh. Entry: `COc1ccc2nc(-c3cccc(C)n3)nc(Nc3ccncc3)c2c1`
0

Entry `Cn1ccc2ncnc(Oc3ccc(NC(=O)Nc4ccccc4)cc3)c21` has what %Inh?
0

Reference for the values: paper PMC5540273
